# measured-target: human FLT3-ITD enzyme (Homo sapiens)
# assay-procedure: FLT3 enzyme inhibitory ability (ADP-Glo kinase assay)
# measurement-parameters: human FLT3-ITD enzyme 10 ng, ATP 10 μM, 25° C. 1 hour
pIC50: −log10 of the molar value.
quantity-measured: pIC50

# compound, measured
rows = [
    ("CN(C)[C@H]1CCN(c2cccc(Nc3nc(N4OCC[C@H]4c4ccccc4)c4cc[nH]c4n3)c2)C1 [Example 99]", "< 6.30"),
]

Form: compound = CN1CCN(c2ccc(Nc3nc(N4OCC[C@H]4c4ccccc4)c4c(C#N)c[nH]c4n3)cc2)CC1 [Example 118] ; pIC50 = ≤ 6.60

Form: compound = CN(C)[C@@H]1CCN(c2cccc(Nc3nc(N4OCC[C@@H]4c4ccccc4)c4cc[nH]c4n3)c2)C1 [Example 125] ; pIC50 = < 6.30

Form: compound = CN1C[C@@H]2C[C@H]1CN2c1cc(Nc2nc(N3OCC[C@H]3c3ccccc3)c3cc[nH]c3n2)cc(S(C)(=O)=O)c1 [Example 91] ; pIC50 = < 6.30

Form: compound = COc1cc(Nc2nc(N3OCC[C@H]3c3ccccc3)c3sccc3n2)ccc1N1CCC(N2CCN(C)CC2)CC1 [Example 57] ; pIC50 = 6.30 to 6.60

Form: compound = CN1CCN(C2CCN(c3c(F)cc(Nc4nc(N5N=CCC5c5ccccc5)c5sccc5n4)cc3F)CC2)CC1 (stereo not drawn) [Example 55] ; pIC50 = < 6.30

Form: compound = CN1CCN(c2ccc(Nc3nc(N4OCC[C@H]4c4ccccc4)c4c(Cl)c[nH]c4n3)cc2)CC1 [Example 116] ; pIC50 = ≤ 6.60
